Reported abundance fitness values are given for each entry in this list.
B1: Ankyrin repeat and SOCS box protein 14, residues 532 to 572; numbered along this chain, A6NK59 (parent)
chain: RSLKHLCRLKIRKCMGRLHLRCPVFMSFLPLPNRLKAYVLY

# Variants of: B1
# assay-explanation: abundance fitness (aPCA) (normalised: wild type 0, dead -1); higher = more abundant; growth selection in yeast, the domain comes from the species named
# recorded-conditions: Homo sapiens
I'd appreciate a reply containing only the number, no unit.

Guide cases for abundance fitness, answers given:
# change, reported
data = [
    ("Y38Q", -0.45),
    ("S27N", 0.019),
    ("R1W", 0.045),
]

Now take the following variant into account.
Req: Item under review: R8E . Reported abundance fitness?
Resp: -0.092
